System: HS 578T breast
experiment-summary: NCI tumour cell line growth inhibition, 48 h
Recorded TGI values for a group of compounds are listed next.

Some compounds with known TGI results, for comparison:
compound: O=C(c1cccc(F)c1F)N1CCc2c([nH]c3ccccc23)C1c1ccc2c(c1)OCO2 (centres undefined)
TGI: > 100 µM
//
compound: COc1ccc(/C=C/C(=O)c2ccc(Cl)cc2Cl)cc1
TGI: 65.4 µM
//
compound: CC(C)(O)[C@@H]1CC[C@](C)(C2[C@@H](O)C[C@@]3(C)C4C[C@H](OC5OCC(O)C(O)C5O)[C@H]5C(C)(C)[C@@H](OC6OCC(O)C(O)C6OC6OCC(O)C(O)C6O)CC[C@@]56C[C@@]46CC[C@]23C)O1 (some centres undefined)
TGI: > 100 µM

// below: TGI requested for another compound
QUERY: Look up and state reported TGI for O=C(Nc1sccc1S(=O)(=O)c1ccc(Cl)cc1)c1ccc(Cl)cc1
RESULT: > 100 µM

###

# key: entry, value: TGI
Test system: U251 CNS
experiment-summary: NCI tumour cell line growth inhibition, 48 h

The following molecules have reported results that may help.
molecule: COC(=O)/C(=N\NC(N)=O)C(C(=O)C(=O)Nc1ccccc1C(=O)OC)c1nc2ccc(C(=O)c3ccccc3)cc2[nH]c1=O (stereo not given)
assay-target: U251 CNS
reported: > 100 µM
--
molecule: COc1cc2c(cc1O)CC[C@@H]1[C@@H]2CC[C@]2(C)[C@@H](OCCCN(C)C)CC[C@@H]12
assay-target: U251 CNS
reported: 0.334 µM
--
molecule: CCCCCC(/C=C/[C@@H]1[C@H]2CC(=O)O[C@H]2C[C@H]1N1CCOCC1)OC1CCCO1 (stereo not given in full)
assay-target: U251 CNS
reported: > 100 µM
--
molecule: O=C(CSc1ncnc2nc[nH]c12)c1ccccc1
assay-target: U251 CNS
reported: > 100 µM
--
molecule: COc1ccc(-c2nc3c(-c4ccccc4)nc(-c4ccccc4)cn3c2-c2ccc(OC)cc2)cc1
assay-target: U251 CNS
reported: > 100 µM

QUERY: // fetch TGI given entry Cc1ccc(-c2nc3cc(N4CCN(C)CC4)c(F)cc3[nH]2)cc1
RESULT: > 100 µM

QUERY: Quote TGI reported for Clc1ccccc1CN1COc2c(cc(Cl)c3cccnc23)C1 please.
RESULT: 14.1 µM

QUERY: Annotate the molecule C[N+]1([O-])CCC(O)(C2CC2)CC1 (stereo not given) with its measured TGI.
RESULT: > 100 µM

QUERY: Note TGI for the molecule shown: COc1nc2c(nc(N)n2C2OC(CO)C(O)C(O)C2O)c(=O)[nH]1 (stereo not given)
RESULT: > 100 µM

QUERY: Provide TGI value for the following molecule: CCOC(=O)/C(=C/c1ccc(C(F)(F)F)cc1)N(CC)CC
RESULT: > 100 µM

QUERY: Input CN(C)CCCNC(=O)c1cccc2ccccc12 , output reported TGI.
RESULT: > 100 µM

###

Notes on GI50 obtained with NCI-H460 lung.

molecule: CC(C)OP(=O)(OC(C)C)c1ncc(-c2ccc(C(F)(F)F)cc2)c(NC2CCCCCC2)n1
GI50: > 10 µM
--
molecule: Nc1nc(/C=C\c2ccc([N+](=O)[O-])s2)nc(N2CCOCC2)n1
GI50: 13.7 µM

Consider the record given below.
QUERY: Look up NCI-H460 lung data: GI50 of C=CC(C)c1cccc(C=O)c1O (stereo not drawn) , then report it.
RESULT: > 100 µM

###

Tested on: DU-145 prostate
experiment-summary: NCI tumour cell line growth inhibition, 48 h; in the data active = GI50 below about 0.43 µM; inactive = the rest
Would you mind answering with one of these outcomes? y (active), n (inactive)

Here are 5 compounds together with their reported answers.
compound: C=C1C(=O)O[C@@H]2[C@@H]3O[C@@H](C[C@@H]13)[C@](C)(O)CC/C=C(\C)CCC[C@H]2C
assigned-class: n
--
compound: CCOC(=O)CCC(NC(=O)c1ccc(Sc2nc3cc(N)cc(N)c3nc2-c2ccccc2)cc1)C(=O)OCC (centres undefined)
assigned-class: n
--
compound: COc1ccc2c(c1)O/C(=C\c1ncc([N+](=O)[O-])n1C)C2=O
assigned-class: y
--
compound: C#C[C@@]1(O)[C@@H](CO)O[C@@H](n2cc(Br)c3c(N)ncnc32)[C@@H]1O
assigned-class: y
--
compound: CC(C)OP(=O)(OC(C)C)c1ncc(-c2ccc(C(F)(F)F)cc2)c(NC2CCCCCC2)n1
assigned-class: n

QUERY: Any idea what this test logged for CCCC(=O)OCC1OC(n2cnc3c(=S)nc(N)[nH]c32)C(OC(=O)CCC)C1OC(=O)CCC (centres undefined) ?
RESULT: n

QUERY: What outcome does the record of this test show for O=S(=O)(Nc1ccc(Cl)c(F)c1)c1ccc(-c2cnc(C3CC3)o2)cc1 ?
RESULT: n

QUERY: Lab log entry: Nc1ccccc1NC(=O)c1ccc(CNC(=O)OCc2cccnc2)cc1 — outcome as called in the assay?
RESULT: n

QUERY: # lookup: test call for COC(=O)[C@@]1(C)CCC[C@]2(C)[C@H]3Cc4occc4[C@H](C)[C@@H]3CC[C@@]12O
RESULT: n

QUERY: Just curious, what result did NC(=O)c1c(Br)n(C2OC(CO)C(O)C2O)c2ncnc(N)c12 (centres undefined) get here?
RESULT: n

QUERY: Check the results log: what was the call for O=C(Nc1ccc(F)cc1F)c1cc(F)ccc1O ?
RESULT: n

###

System: RPMI-8226 leukemia
experiment-summary: NCI tumour cell line growth inhibition, 48 h; in the data active means GI50 below about 0.43 µM; inactive means the rest
Result category, one only: active, inactive

Check out these entries, answers already filled in.
compound: N#Cc1cnc(=O)n(C2CC(O)C(CO)O2)c1 (stereo unspecified)
assigned-class: inactive
//
compound: COc1ccc(-c2nc3c(-c4ccccc4)nc(-c4ccccc4)cn3c2-c2ccc(OC)cc2)cc1
assigned-class: inactive
//
compound: CCCC(=O)OCC1OC(n2cnc3c(=S)nc(N)[nH]c32)C(OC(=O)CCC)C1OC(=O)CCC (stereo unspecified)
assigned-class: inactive
//
compound: CC(C)N(Cc1c(F)cccc1F)c1ccc(CO)c(Cl)c1
assigned-class: inactive
//
compound: COc1cc2c(cc1O)CC[C@@H]1[C@@H]2CC[C@]2(C)[C@@H](OCCCN(C)C)CC[C@@H]12
assigned-class: active
//
compound: O=S(=O)(Nc1ccc(Cl)c(F)c1)c1ccc(-c2cnc(C3CC3)o2)cc1
assigned-class: inactive

QUERY: Which outcome was assigned to O=C1OCC(C#Cc2ccccc2)=C1Br in this test?
RESULT: inactive

QUERY: Short answer needed: outcome of this test for S=c1ssnc1-c1ccccn1 ?
RESULT: inactive

QUERY: Give the logged outcome of this assay for the following compound: CC(C)(C)C(=O)OCCNc1nc(-c2ccccc2)nc2ccccc12
RESULT: inactive

QUERY: Record request — test call for NC(=O)c1c(Br)n(C2OC(CO)C(O)C2O)c2ncnc(N)c12 (stereo unspecified)
RESULT: inactive

QUERY: GET /call?item= CC(C)OP(=O)(OC(C)C)c1ncc(-c2ccc(C(F)(F)F)cc2)c(NC2CCCCCC2)n1 returns the recorded outcome of this test.
RESULT: inactive

###

Test system: UACC-62 melanoma
experiment-summary: NCI tumour cell line growth inhibition, 48 h
reported-endpoint: TGI

Solved entries (count: 5):
smiles-string: COc1ccc(C2=C(c3cn(C)c4ccccc34)C(=O)OC2)cc1OC
TGI: > 100 µM
//
smiles-string: O=C(CCN1CCOCC1)c1ccc(Oc2ccc(F)cc2)cc1
TGI: 37 µM
//
smiles-string: O=C(Nc1sccc1S(=O)(=O)c1ccc(Cl)cc1)c1ccc(Cl)cc1
TGI: > 100 µM
//
smiles-string: CC(=O)/C(=C/n1ccc(=O)[nH]c1=S)C(=O)Nc1ccccc1C
TGI: > 100 µM
//
smiles-string: NCCNC1=CC(=O)c2nc3ccccc3c3ccnc1c23
TGI: 3.3 µM

# ---- query compound ----
QUERY: Fill in TGI for record Cc1nc2ccc(Cl)cc2c(Cl)c1CCCl
RESULT: > 100 µM

###

Test system: NCI-H522 lung
experiment-summary: NCI tumour cell line growth inhibition, 48 h
reported-endpoint: GI50

Before answering, review these 5 worked examples.
smiles-string: O=C1CCC/C=C\C[C@H]2C=CC(=O)/C2=C/C[C@H](CCc2cccc(C(F)(F)F)c2)O1
assay-target: NCI-H522 lung
reported: 1230 nM
//
smiles-string: O=C(NC1CCCCC1)OCc1c(COC(=O)NC2CCCCC2)c(-c2ccc(Cl)c(Cl)c2)n2c1CCC2
assay-target: NCI-H522 lung
reported: 3010 nM
//
smiles-string: COC(=O)[C@@]1(C)CCC[C@]2(C)[C@H]3Cc4occc4[C@H](C)[C@@H]3CC[C@@]12O
assay-target: NCI-H522 lung
reported: 31400 nM
//
smiles-string: Cc1ccc(-c2nc3nc(-c4ccc(Br)cc4)nc(N4CCCNCC4)c3o2)cc1
assay-target: NCI-H522 lung
reported: 1860 nM
//
smiles-string: C=C1C(=O)O[C@@H]2[C@@H]3O[C@@H](C[C@@H]13)[C@](C)(O)CC/C=C(\C)CCC[C@H]2C
assay-target: NCI-H522 lung
reported: 1650 nM

QUERY: Quote GI50 with test system NCI-H522 lung for Nc1nc(/C=C\c2ccc([N+](=O)[O-])s2)nc(N2CCOCC2)n1
RESULT: 4570 nM

QUERY: Give the observed GI50 of CCN(Cc1ccccn1)c1ccc(CO)c(Cl)c1 for NCI-H522 lung.
RESULT: > 100000 nM

QUERY: Provide measured GI50 on NCI-H522 lung for COc1ccc(OC)c(/C=C/C(=O)N/N=C/c2ccccc2)c1 please.
RESULT: 1570 nM

Reference for the values: PubChem BioAssay (NCI)
